Target: T1, soluble EGFR (human epithelial cell growth factor receptor 1, Her1) (human, UniProt P00533 25-645, limits assumed)
T1 construct: The metal chelate purification implies a His tag, but none is described; also called target antigen
Assay: ITC, 50 uM Fv titrated into 5 uM soluble EGFR
# Ka annotations

Binder: h528Fv 5.12.0 (other) VH: QVQLVQSGAEVKKPGASVKVSCKASGYTFTSYWMHWVRQAPGQGLEWMGNIWPGKGGTNYAEKFQKRVTMTRDTSISTAYMELSRLRSDDTAVYYCARSGGPYFFDYWGQGTLVTVSS VL: DIVMTQSPLSLPVTPGEPASISCRSSQNIVHNNGITYLEWYLQKPGQSPQLLIYKVSDRFSGVPDRFSGSGSGTDFTLKISRVEAEDVGVYYCFQGSHIPPTFGQGTKVEIKR
Ka / M⁻¹: 4.42e+08

Binder: h528Fv 5.98.0 (other) VH: QVQLVQSGAEVKKPGASVKVSCKASGYTFTSYWMHWVRQAPGQGLEWMGNIWPGQGGTNYAEKFKSRVTMTRDTSISTAYMELSRLRSDDTAVYYCARSGGPYFFDYWGQGTLVTVSS VL: DIVMTQSPLSLPVTPGEPASISCRSSQNIVHNNGITYLEWYLQKPGQSPQLLIYKVSDRFSGVPDRFSGSGSGTDFTLKISRVEAEDVGVYYCFQGSHIPPTFGQGTKVEIKR
Ka / M⁻¹: 5.05e+08

Binder: h528Fv 5.73.0 (other) VH: QVQLVQSGAEVKKPGASVKVSCKASGYTFTSYWMHWVRQAPGQGLEWMGNIWPGNGGTNYAEQFKQRVTMTRDTSISTAYMELSRLRSDDTAVYYCARSGGPYFFDYWGQGTLVTVSS VL: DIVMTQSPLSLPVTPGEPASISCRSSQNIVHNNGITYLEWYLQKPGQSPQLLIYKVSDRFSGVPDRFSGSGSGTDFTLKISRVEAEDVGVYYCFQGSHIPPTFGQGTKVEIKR
Ka / M⁻¹: 4.95e+08

Binder: h528Fv 5.11.T (other) VH: QVQLVQSGAEVKKPGASVKVSCKASGYTFTSYWMHWVRQAPGQGLEWMGNIWPGTGGTNYAEKFQQRVTMTRDTSISTAYMELSRLRSDDTAVYYCTRSGGPYFFDYWGQGTLVTVSS VL: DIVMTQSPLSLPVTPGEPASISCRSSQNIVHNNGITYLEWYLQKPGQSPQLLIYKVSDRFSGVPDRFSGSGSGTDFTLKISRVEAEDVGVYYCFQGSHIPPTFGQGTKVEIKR
Ka / M⁻¹: 5.24e+08

Binder: h528Fv WT (other, Fv fragment: VH and VL co-expressed in E. coli BL21; Purified by metal chelate chromatography; the tag is not described; also called wild type humanized Fv) VH: QVQLVQSGAEVKKPGASVKVSCKASGYTFTSYWMHWVRQAPGQGLEWMGNIYPGSGGTNYAEKFKNRVTMTRDTSISTAYMELSRLRSDDTAVYYCARSGGPYFFDYWGQGTLVTVSS VL: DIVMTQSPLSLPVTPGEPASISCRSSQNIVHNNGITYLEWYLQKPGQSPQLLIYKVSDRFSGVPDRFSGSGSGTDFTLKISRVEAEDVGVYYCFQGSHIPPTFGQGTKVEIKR
Ka / M⁻¹: 1.9e+07

Binder: h528Fv 5.0.0 (other) VH: QVQLVQSGAEVKKPGASVKVSCKASGYTFTSYWMHWVRQAPGQGLEWMGNIWPGSGGTNYAEKFKNRVTMTRDTSISTAYMELSRLRSDDTAVYYCARSGGPYFFDYWGQGTLVTVSS VL: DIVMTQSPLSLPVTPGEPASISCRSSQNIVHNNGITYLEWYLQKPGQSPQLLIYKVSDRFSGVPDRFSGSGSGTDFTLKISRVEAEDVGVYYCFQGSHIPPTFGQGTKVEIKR
Ka / M⁻¹: 1.49e+08
